- subjectOfTest: HIV-1 Env of CAP256.PI (HIV-1)
- experimentSummary: cell-based or functional assay
quantity: neutralization IC50

Name the reported neutralization IC50 value associated with the binder CAP256-VRC26.08 (antibody, V domains shown) VH: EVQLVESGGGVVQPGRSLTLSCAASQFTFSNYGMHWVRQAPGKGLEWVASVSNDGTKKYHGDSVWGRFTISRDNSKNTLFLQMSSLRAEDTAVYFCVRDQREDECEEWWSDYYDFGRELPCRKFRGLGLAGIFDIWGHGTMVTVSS VL: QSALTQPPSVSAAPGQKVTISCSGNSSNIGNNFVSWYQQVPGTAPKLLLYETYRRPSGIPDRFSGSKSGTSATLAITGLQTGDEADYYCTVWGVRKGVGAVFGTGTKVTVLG
> 50 mg/L

Fill in the blank: the reported neutralization IC50 of CAP256-VRC26.11 (antibody, V domains shown) VH: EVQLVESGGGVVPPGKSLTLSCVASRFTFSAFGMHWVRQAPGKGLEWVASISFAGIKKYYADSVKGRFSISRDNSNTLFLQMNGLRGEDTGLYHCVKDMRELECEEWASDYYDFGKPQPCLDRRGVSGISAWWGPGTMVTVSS VL: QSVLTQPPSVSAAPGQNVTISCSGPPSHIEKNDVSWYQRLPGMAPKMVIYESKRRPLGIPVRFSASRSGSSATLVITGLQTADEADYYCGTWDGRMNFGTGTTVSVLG is ____.
> 50 mg/L

Would you kindly share the measured neutralization IC50 for CAP256-VRC26.05 (antibody, V domains shown) VH: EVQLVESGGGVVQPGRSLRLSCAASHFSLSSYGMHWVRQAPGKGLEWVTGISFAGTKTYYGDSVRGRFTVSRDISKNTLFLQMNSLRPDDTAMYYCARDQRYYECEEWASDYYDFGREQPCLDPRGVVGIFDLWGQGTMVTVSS VL: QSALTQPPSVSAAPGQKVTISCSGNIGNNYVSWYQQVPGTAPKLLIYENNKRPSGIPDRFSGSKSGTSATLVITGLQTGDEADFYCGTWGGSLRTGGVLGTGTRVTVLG ?
> 50 mg/L
